Assay: Method G: permeability in the Caco-2/TC7 in vitro model
Conditions: human, Caco-2, pH 6.5
Use yes (1) when the recorded Papp A→B at 20 μM is no lower than 6 ×10⁻⁶ cm/s; use no (0) when it is lower.

>>> df
                                    molecule  class_name
 0  O=C(CO[C@H]1CC[C@H](Nc2ccc([N+](=O)[O-])c(C(F)(F)F)c2)CC1)N1CCN(Cc2cc3cc(F)c(F)cc3o2)CC1     yes (1)
 1  O=C(CO[C@H]1CC[C@H](Nc2ccc([N+](=O)[O-])c(C(F)(F)F)c2)CC1)N1CCN(Cc2cc3cc(F)ccc3s2)CC1      no (0)
 2  O=C(CO[C@H]1CC[C@H](Nc2ccc([N+](=O)[O-])c(C(F)(F)F)c2)CC1)N1CCN(CC2Cc3ccccc3O2)CC1 (stereo partly drawn)     yes (1)
 3  N#Cc1ccc(N[C@H]2CC[C@H](OCC(=O)N3CCN(c4cnc5ccccc5c4)CC3)CC2)cc1C(F)(F)F     yes (1)
 4  O=C(CO[C@H]1CC[C@H](Nc2ccc([N+](=O)[O-])c(C(F)(F)F)c2)CC1)N1CCN(Cc2nc3cc(Cl)ccc3o2)CC1     yes (1)
 5  CN(c1ccc([N+](=O)[O-])c(C(F)(F)F)c1)[C@H]1CC[C@H](OCC(=O)N2CCN(Cc3cc4cc(C(F)(F)F)ccc4o3)CC2)CC1      no (0)
 6  O=C(CO[C@H]1CC[C@H](Nc2ccc([N+](=O)[O-])c(C(F)(F)F)c2)CC1)N1CCN(C(=O)C2Cc3cc(F)ccc3O2)CC1 (stereo partly drawn)     yes (1)
 7  O=C(CO[C@H]1CC[C@H](Nc2ccc([N+](=O)[O-])c(C(F)(F)F)c2)CC1)N1CCN(Cc2ccc3cc(F)ccc3c2)CC1      no (0)
 8  O=C(CO[C@H]1CC[C@H](Nc2ccc([N+](=O)[O-])c(C(F)(F)F)c2)CC1)N1CCN(Cc2ccc3cc(C(F)(F)F)ccc3n2)CC1     yes (1)
 9  N#Cc1ccc(N[C@H]2CC[C@H](OCC(=O)N3CCN(Cc4ccc5ccc(C(F)(F)F)cc5n4)CC3)CC2)cc1C(F)(F)F     yes (1)
10  O=C(COc1ccc(Nc2ccc([N+](=O)[O-])c(C(F)(F)F)c2)cc1)N1CCN(CC2Cc3cc(C(F)(F)F)ccc3O2)CC1 (stereo not drawn)      no (0)
11  O=C(NCCO[C@H]1CC[C@H](Nc2ccc([N+](=O)[O-])c(C(F)(F)F)c2)CC1)C(=O)NCc1cc2cc(F)ccc2o1     yes (1)

###

Test: Method G: permeability in the Caco-2/TC7 in vitro model
Conditions: human, Caco-2, pH 6.5
Classification field: True = Papp A→B at 20 μM at or over 7 ×10⁻⁶ cm/s; False = Papp A→B at 20 μM under 7 ×10⁻⁶ cm/s.

                                smiles_code  class_name
0  O=C(CO[C@H]1CC[C@H](Nc2ccc([N+](=O)[O-])c(C(F)(F)F)c2)CC1)N1CCN(Cc2cc3ccc(Cl)cc3o2)CC1        True
1  O=C(CO[C@H]1CC[C@H](Nc2ccc([N+](=O)[O-])c(C(F)(F)F)c2)CC1)N1CCN(Cc2nc3cc(Cl)ccc3s2)CC1       False
2  N#Cc1ccc(N[C@H]2CC[C@H](OCC(=O)N3CCN(Cc4ccc5cc(C(F)(F)F)ccc5n4)CC3)CC2)cc1C(F)(F)F        True
3  N#Cc1ccc(N[C@H]2CC[C@H](OCC(=O)N3CCN(Cc4nc5cc(C(F)(F)F)ccc5s4)CC3)CC2)cc1C(F)(F)F        True
4  O=C(CO[C@H]1CC[C@H](Nc2ccc([N+](=O)[O-])c(C(F)(F)F)c2)CC1)N1CCN(Cc2cc3cc(Cl)ccc3o2)CC1       False

###

The entries below come with measured Papp A→B at 20 μM values attached.
Assay: Method G: permeability in the Caco-2/TC7 in vitro model
Conditions: human, Caco-2, pH 6.5
Measured Property: Papp A→B at 20 μM

>>> df
                                   compound    result
0  CN(c1ccc([N+](=O)[O-])c(C(F)(F)F)c1)[C@H]1CC[C@H](OCC(=O)N2CCN(CC3Cc4cc(F)ccc4O3)CC2)CC1 (stereo partly drawn)   82 nm/s
1  O=C(CO[C@H]1CC[C@H](Nc2ccc([N+](=O)[O-])c(C(F)(F)F)c2)CC1)N1CCN(Cc2nc3cc(F)ccc3o2)CC1  120 nm/s
2  CC(c1cc2cc(F)ccc2o1)N1CCN(C(=O)CO[C@H]2CC[C@H](Nc3ccc([N+](=O)[O-])c(C(F)(F)F)c3)CC2)CC1 (stereo partly drawn)   90 nm/s

###

This listing pairs molecules with measured Papp A→B at 20 μM.
Test: Method G: permeability in the Caco-2/TC7 in vitro model
Details: human, Caco-2, pH 6.5
Measured Property: Papp A→B at 20 μM

>>> df
                                    molecule           result
 0  O=C(CO[C@H]1CC[C@H](Nc2ccc([N+](=O)[O-])c(C(F)(F)F)c2)CC1)N1CCN(Cc2ccc3ccc(C(F)(F)F)cc3n2)CC1 [Compound 328]   7.2 ×10⁻⁶ cm/s
 1  COc1ccc2oc(CN3CCN(C(=O)CO[C@H]4CC[C@H](Nc5ccc([N+](=O)[O-])c(C(F)(F)F)c5)CC4)CC3)cc2c1 [Compound 323]  11.9 ×10⁻⁶ cm/s
 2  N#Cc1ccc(N[C@H]2CC[C@H](OCC(=O)N3CCN(CC4Cc5cc(C(F)(F)F)ccc5O4)CC3)CC2)cc1C(F)(F)F (stereo partly shown) [Compound 84]   5.3 ×10⁻⁶ cm/s
 3  O=C(CO[C@H]1CC[C@H](Nc2ccc([N+](=O)[O-])c(C(F)(F)F)c2)CC1)N1CCN(Cc2nc3cc(F)ccc3s2)CC1 [Compound 235]  13.8 ×10⁻⁶ cm/s
 4  N#Cc1ccc(N[C@H]2CC[C@H](OCC(=O)N3CCN(CC4Cc5cc(Cl)ccc5O4)CC3)CC2)cc1C(F)(F)F (stereo partly shown) [Compound 82]   7.1 ×10⁻⁶ cm/s
 5  N#Cc1ccc(N[C@H]2CC[C@H](OCC(=O)N3CCN(Cc4nc5cc(F)ccc5s4)CC3)CC2)cc1C(F)(F)F [Compound 294]   8.2 ×10⁻⁶ cm/s
 6  N#Cc1ccc(N[C@H]2CC[C@H](OCC(=O)N3CCN(Cc4cc5cc(Cl)ccc5o4)CC3)CC2)cc1C(F)(F)F [Compound 274]   9.2 ×10⁻⁶ cm/s
 7  O=C(NCCO[C@H]1CC[C@H](Nc2ccc([N+](=O)[O-])c(C(F)(F)F)c2)CC1)C(=O)NCc1cc2cc(Cl)ccc2o1 [Compound 222]     5 ×10⁻⁶ cm/s
 8  O=C(CO[C@H]1CC[C@H](Nc2ccc([N+](=O)[O-])c(C(F)(F)F)c2)CC1)N1CCN(Cc2cc3c(F)c(F)ccc3o2)CC1 [Compound 320]   6.8 ×10⁻⁶ cm/s
 9  O=C(CO[C@H]1CC[C@H](Nc2ccc([N+](=O)[O-])c(C(F)(F)F)c2)CC1)N1CCN(Cc2ccc3c(C(F)(F)F)cccc3n2)CC1 [Compound 329]   5.6 ×10⁻⁶ cm/s
10  N#Cc1ccc(N[C@H]2CC[C@H](OCC(=O)N3CCN(Cc4nc5cc(Cl)ccc5s4)CC3)CC2)cc1C(F)(F)F [Compound 292]   8.3 ×10⁻⁶ cm/s
11  N#Cc1ccc(N[C@H]2CC[C@H](OCC(=O)N3CCN(Cc4cc5cc(C(F)(F)F)ccc5o4)CC3)CC2)cc1C(F)(F)F [Compound 306]     9 ×10⁻⁶ cm/s
12  O=C(CO[C@H]1CC[C@H](Nc2ccc([N+](=O)[O-])c(C(F)(F)F)c2)CC1)N1CCN(c2cnc3ccccc3c2)CC1 [Compound 336]   7.9 ×10⁻⁶ cm/s

###

Test system: microfilaria of Dirofilaria immitis
Test: Method F: microfilaria of Dirofilaria immitis, survival at 24 hours
Measured EC50, listed per entry.
Measured Property: EC50

In [3]: df
Out[3]:
                                   compound  measured_property       result
0  CN(c1ccc([N+](=O)[O-])c(C(F)(F)F)c1)[C@H]1CC[C@H](OCC(=O)N2CCN(c3ccc4cc(F)ccc4c3)CC2)CC1               EC50  < 0.1 µg/mL
1  O=C(CO[C@H]1CC[C@H](Nc2ccc([N+](=O)[O-])c(C(F)(F)F)c2)CC1)N1CCN(CC2Cc3cc(Cl)ccc3O2)CC1 (stereo partly drawn)               EC50    < 5 µg/mL
2  CN(c1ccc([N+](=O)[O-])c(C(F)(F)F)c1)[C@H]1CC[C@H](OCC(=O)N2CCN(c3ccc4cc(C(F)(F)F)ccc4n3)CC2)CC1               EC50    < 1 µg/mL
